# PARTICULARS: in NMP, 278.15 K
QUANTITY: solubility (mole fraction)
Answers are plain numbers.

query: Tell me the measured solubility (mole fraction) of CNC[C@H](O)c1cccc(O)c1.Cl , please.
result: 0.154

====

# PARTICULARS: in methanol, 298.15 K
QUANTITY: solubility (mole fraction)
Numbers only.

query: Tell me the measured solubility (mole fraction) of CNC[C@H](O)c1cccc(O)c1.Cl , please.
result: 0.111

====

# PARTICULARS: in NMP, 293.15 K
QUANTITY: solubility (mole fraction)
Numbers only.

query: Tell me the measured solubility (mole fraction) of CNC[C@H](O)c1cccc(O)c1.Cl , please.
result: 0.178
